# credit: patent US20260116991A1

# OD450 nm values compiled below
Target: T1, polypeptide GC3pep (human)
T1 construct: also called membrane proximal polypeptide GC3pep
T1 peptide: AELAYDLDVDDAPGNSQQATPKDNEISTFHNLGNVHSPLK
Assay: ELISA, GC3pep coated, antibody 10 nM;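 also: antibody bound to the coated peptide for 2 h at 37 °C, detected through an HRP-conjugated secondary antibody with TMB colour development stopped by acid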
Expressed in OD450 nm, but write only the number.

Solved entries:
F1.3.9 (antibody, human IgG1, kappa, V domains shown, human-murine chimeric antibody) VH: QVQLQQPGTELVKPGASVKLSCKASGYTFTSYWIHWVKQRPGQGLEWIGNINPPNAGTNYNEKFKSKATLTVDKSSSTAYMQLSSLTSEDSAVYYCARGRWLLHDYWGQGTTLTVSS VL: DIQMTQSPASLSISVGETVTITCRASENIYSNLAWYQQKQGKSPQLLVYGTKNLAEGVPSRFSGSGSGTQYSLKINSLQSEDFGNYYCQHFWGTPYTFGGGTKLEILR :: 0.06
F2.154.1 (antibody, human IgG1, kappa, V domains shown, human-murine chimeric antibody) VH: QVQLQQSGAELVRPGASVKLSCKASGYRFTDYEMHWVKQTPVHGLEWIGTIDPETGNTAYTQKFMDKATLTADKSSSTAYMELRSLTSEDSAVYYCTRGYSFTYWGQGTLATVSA VL: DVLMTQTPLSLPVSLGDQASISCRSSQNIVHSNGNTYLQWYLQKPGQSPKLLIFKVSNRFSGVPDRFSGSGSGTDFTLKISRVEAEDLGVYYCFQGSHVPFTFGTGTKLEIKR :: 2.42

Now let's try a different one.
Given F4.26.1 (antibody, human IgG1, kappa, V domains shown, human-murine chimeric antibody) VH: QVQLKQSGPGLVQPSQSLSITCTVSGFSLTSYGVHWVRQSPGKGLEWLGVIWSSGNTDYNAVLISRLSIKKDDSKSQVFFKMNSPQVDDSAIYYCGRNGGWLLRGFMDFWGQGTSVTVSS VL: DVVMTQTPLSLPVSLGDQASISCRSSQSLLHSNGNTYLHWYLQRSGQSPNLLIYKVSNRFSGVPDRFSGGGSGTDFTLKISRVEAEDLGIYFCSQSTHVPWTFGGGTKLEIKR , state its recorded OD450 nm. 0.04
